Kindly state TGI for each of the entries shown.
- Tested on: OVCAR-4 ovarian
- PROTOCOL_DETAILS: NCI tumour cell line growth inhibition, 48 h

-- ask Provide measured TGI value, entry: C/C1=C/C2=CC(C)C[C@@H]2C(=O)[C@]2(C)C(=O)CC(C)(C)[C@H]2CC1=O (some centres not stated)
-- reply > 50 µM

-- ask Provide measured TGI value, entry: O=C(CF)N(O)c1ccc(/C=C/c2ccccc2)cc1
-- reply > 66.9 µM

-- ask Provide measured TGI value, entry: Cc1cc(=O)[nH]o1
-- reply > 100 µM

-- ask Provide measured TGI value, entry: CC(Oc1ccc(OCC2CCCCC2)cc1)C(N)=O (configuration not stated)
-- reply > 100 µM

-- ask Provide measured TGI value, entry: Cc1ccc(S(=O)(=O)N/N=c2\c(C)c(C3=NS(=O)(=O)c4cc(S(N)(=O)=O)c(Cl)cc4N3)oc3c(Cl)cc(Cl)cc23)cc1
-- reply > 100 µM

-- ask Provide measured TGI value, entry: O=c1[nH]c(=O)n(C2OC(CO)C(O)C2O)c2ccsc12 (configuration not stated)
-- reply > 100 µM

-- ask Provide measured TGI value, entry: O=c1oc2nc(-c3ccccc3)cc(C(F)(F)F)c2n1Cc1ccccc1
-- reply > 100 µM

-- ask Provide measured TGI value, entry: Nc1nncc2c1ccn2C1OC(CO)C(O)C1O (configuration not stated)
-- reply > 100 µM

-- ask Provide measured TGI value, entry: C[C@]12CCc3nonc3C1CC[C@@H]1C2CC[C@]2(C)NC(=O)CCC12 (some centres not stated)
-- reply > 100 µM

-- ask Provide measured TGI value, entry: O=C(CCCN1CCOCC1)Nc1ccc(Cn2nnc3c2C(=O)c2nnn(Cc4ccc(NC(=O)CCCN5CCOCC5)cc4)c2C3=O)cc1
-- reply 2.51 µM

-- ask Provide measured TGI value, entry: COc1ccc2c(c1)[n+]([O-])c(-c1ccccc1)c(N)[n+]2[O-]
-- reply > 100 µM

-- ask Provide measured TGI value, entry: Oc1ccc2oc3c(O)c4ccccc4cc3c2c1
-- reply 13 µM

-- ask Provide measured TGI value, entry: O=C(NNc1ccnc2cc(Cl)ccc12)/C(=C\c1ccccc1Cl)NC(=O)c1ccccc1
-- reply > 100 µM

-- ask Provide measured TGI value, entry: CCOC(=O)N(c1ccccc1)c1cc(=O)n2ccccc2n1
-- reply > 100 µM

-- ask Provide measured TGI value, entry: CCCC[N+](CCCC)=c1ccc2nc3c(C)cc(N(CC)CC)cc3sc-2c1
-- reply 1.11 µM

-- ask Provide measured TGI value, entry: Oc1c(CN2CCCC2)cc(COCc2ccc(Br)cc2)c2cccnc12
-- reply 3.02 µM

-- ask Provide measured TGI value, entry: Cc1ccc(C[P+]2(c3ccccc3)CCCCC2)cc1
-- reply > 100 µM

-- ask Provide measured TGI value, entry: COc1cc2nccc(Oc3ccc(NC(=O)C4(C(=O)Nc5ccc(F)cc5)CC4)cc3)c2cc1Oc1ccc(N)cn1
-- reply > 100 µM

-- ask Provide measured TGI value, entry: Cn1nnnc1N/N=C/c1ccccc1
-- reply > 10 µM

-- ask Provide measured TGI value, entry: O=C1c2ccccc2C(=O)c2c1ccc1nc3c(nc21)-c1c2ccccc2cc2cccc-3c12
-- reply > 100 µM

-- ask Provide measured TGI value, entry: C=CCCCC1SC2=C(CC)CCCN2C1=O (configuration not stated)
-- reply > 100 µM

-- ask Provide measured TGI value, entry: COC(=O)c1ccc(NC(=O)Nc2ccc3oc(=O)c4ccccc4c3c2)cc1
-- reply > 100 µM

---

- Test system: HS 578T breast
- PROTOCOL_DETAILS: NCI tumour cell line growth inhibition, 48 h
Kindly state TGI for each of the entries shown.

-- ask Provide measured TGI value, entry: C=CCC(CC=O)(C(=O)OCC)C(=O)OCC
-- reply > 100 µM

-- ask Provide measured TGI value, entry: Cc1cccc(/C=C2\CCCc3ccccc3C2=O)c1
-- reply 32.6 µM

-- ask Provide measured TGI value, entry: CSCCC(N)P(C)(=O)O (stereo unspecified)
-- reply > 100 µM

-- ask Provide measured TGI value, entry: CC(=O)OC/C=C/Cn1ncc(=O)[nH]c1=O
-- reply > 100 µM

-- ask Provide measured TGI value, entry: O=C(CF)N(O)c1ccc(/C=C/c2ccccc2)cc1
-- reply > 91.5 µM

-- ask Provide measured TGI value, entry: O=c1oc2ccccc2c(O)c1C1c2c(c3ccccc3oc2=O)Oc2c1c(=O)oc1ccccc21
-- reply > 100 µM

-- ask Provide measured TGI value, entry: O=C1C(C(c2ccccc2)N2CCOCC2)=C(O)C(c2ccccc2)N1c1ccccc1 (stereo unspecified)
-- reply > 10 µM

-- ask Provide measured TGI value, entry: COc1ccc(C2=NN(C(=O)c3cc(OC)c(OC)c(OC)c3)C(c3ccc(Cl)cc3)C2)cc1OC (stereo unspecified)
-- reply > 42.4 µM

-- ask Provide measured TGI value, entry: O=C1Nc2ccccc2S/C1=C\c1ccccc1C(F)(F)F
-- reply > 100 µM

-- ask Provide measured TGI value, entry: CCOC(=O)/C=C/c1cc2cc(-c3csc4ccccc34)ccc2[nH]1
-- reply 22.2 µM

-- ask Provide measured TGI value, entry: CCOC(=O)[C@H](O)[C@@H](O)C(=O)NCc1ccc(C(=O)c2ccccc2)cc1
-- reply > 100 µM

---

- Tested on: SF-295 CNS
- PROTOCOL_DETAILS: NCI tumour cell line growth inhibition, 48 h; in the data active = GI50 below about 0.43 µM; inactive = the rest
One label from this list, please: yes = active, no = inactive

-- ask Hello, I am checking results. What call was entered for C=CC(C=O)C1(O)CCOC(=O)/C1=C\N (stereo not given) ?
-- reply no

-- ask Hello, I am checking results. What call was entered for COc1ccc2c(c1)C(=O)c1c-2c(Nc2ccc(C(C)=O)cc2)nc2ccccc12 ?
-- reply no

-- ask Hello, I am checking results. What call was entered for COc1ccc(C2=NN(C(=O)c3cc(OC)c(OC)c(OC)c3)C(c3ccc(Cl)cc3)C2)cc1OC (stereo not given) ?
-- reply no

-- ask Hello, I am checking results. What call was entered for Oc1ccc(O)c(-c2cc(-c3ccccc3)nn2-c2ccccc2)c1 ?
-- reply no

-- ask Hello, I am checking results. What call was entered for O=C(Nc1ccc(Cl)cc1F)c1cc(I)ccc1O ?
-- reply no

-- ask Hello, I am checking results. What call was entered for CC(C)(C#N)c1cc(F)cc(C(=O)Nc2cc(Nc3ncccc3-c3ncnc4nc[nH]c34)ccc2F)c1 ?
-- reply no

-- ask Hello, I am checking results. What call was entered for Cn1cc(C2=C(c3cccnc3)C(=O)NC2=O)c2ccccc21 ?
-- reply no

-- ask Hello, I am checking results. What call was entered for O=C(Nc1ccc(CN2CCOCC2)cc1)c1[nH]ncc1Nc1ncnc2sccc12 ?
-- reply no

-- ask Hello, I am checking results. What call was entered for Cc1cccc(C(=O)/C=C/SC(=NC#N)SCc2ccccc2)c1 ?
-- reply no

-- ask Hello, I am checking results. What call was entered for C/C(=N\N=C(\[Se])N1CCN(c2ccccn2)CC1)c1ccccn1 ?
-- reply yes

---

- System: 786-0 renal
- PROTOCOL_DETAILS: NCI tumour cell line growth inhibition, 48 h; in the data active = GI50 below about 0.43 µM; inactive = the rest
One label from this list, please: active, inactive

-- ask Hello, I am checking results. What call was entered for CCOc1cc2c(cc1O)/C(=N\O)C[C@@H]1[C@@H]2CC[C@]2(C)[C@@H](O)CC[C@@H]12 ?
-- reply active

-- ask Hello, I am checking results. What call was entered for O=C(CSC(c1ccccc1)c1ccccc1)N/N=C/c1cccc(Cl)c1 ?
-- reply inactive

-- ask Hello, I am checking results. What call was entered for C[C@@H]1CC[C@@H]2[C@@H]1[C@H](OC(=O)/C=C/c1ccccc1)[C@]1(C3CCCCC3)C[C@@H](NC(=O)CO)[C@@]2(C)O1 ?
-- reply inactive

-- ask Hello, I am checking results. What call was entered for Cc1noc(C)c1-c1cc(O)cc(C(O)c2ccccc2)c1 (stereo not drawn) ?
-- reply inactive

-- ask Hello, I am checking results. What call was entered for C=CC(C=O)C1(O)CCOC(=O)/C1=C\N (stereo not drawn) ?
-- reply inactive

-- ask Hello, I am checking results. What call was entered for CN(N=O)C(=O)N[C@@H](C=O)[C@@H](O)[C@H](O)[C@H](O)CO ?
-- reply inactive

-- ask Hello, I am checking results. What call was entered for COc1ccc2nc3cc(Cl)ccc3c(N3CCN(c4ccnc(N5CCOCC5)n4)CC3)c2c1 ?
-- reply inactive

-- ask Hello, I am checking results. What call was entered for COC(=O)[C@]12CC[C@@H](C)[C@H](C)[C@@H]1C1=CC[C@@H]3[C@@]4(C)C(C=O)=C[C@@](C)(COC(=O)c5ccco5)[C@@H]4C(=O)C[C@@]3(C)[C@]1(C)CC2 ?
-- reply inactive
